system: Interstitial collagenase (Homo sapiens)
Sequence (P03956 whole entry): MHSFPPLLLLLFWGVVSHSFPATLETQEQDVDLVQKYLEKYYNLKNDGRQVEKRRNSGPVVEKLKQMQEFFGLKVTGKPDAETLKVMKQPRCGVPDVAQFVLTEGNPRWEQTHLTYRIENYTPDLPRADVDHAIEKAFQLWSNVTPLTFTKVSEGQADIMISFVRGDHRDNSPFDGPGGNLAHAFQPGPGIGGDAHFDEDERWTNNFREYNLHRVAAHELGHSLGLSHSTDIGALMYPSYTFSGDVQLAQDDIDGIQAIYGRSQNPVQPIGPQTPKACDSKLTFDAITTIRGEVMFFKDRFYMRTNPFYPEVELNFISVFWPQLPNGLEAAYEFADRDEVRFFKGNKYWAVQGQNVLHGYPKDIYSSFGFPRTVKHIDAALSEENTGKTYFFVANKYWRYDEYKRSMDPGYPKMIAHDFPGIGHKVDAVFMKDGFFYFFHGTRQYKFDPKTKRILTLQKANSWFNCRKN
protocol-details: Inhibition of human MMP1 using Dnp-Pro-Cha-Gly-Cys(Me)-His-Ala-Lys(Nma)-NH2 substrate by fluorimetric analysis
readout-type: pIC50
Give bare numbers, as −log10 of the molar value.

Input: // returns reported pIC50 for input COc1ccc(S(=O)(=O)N2CC(C)(C)C(CCSCc3ccccc3)C2C(=O)NO)cc1 (stereo unspecified)
Output: 6.70

----------
system: 72 kDa type IV collagenase (Homo sapiens, UniProt P08253)
Sequence (P08253 whole entry): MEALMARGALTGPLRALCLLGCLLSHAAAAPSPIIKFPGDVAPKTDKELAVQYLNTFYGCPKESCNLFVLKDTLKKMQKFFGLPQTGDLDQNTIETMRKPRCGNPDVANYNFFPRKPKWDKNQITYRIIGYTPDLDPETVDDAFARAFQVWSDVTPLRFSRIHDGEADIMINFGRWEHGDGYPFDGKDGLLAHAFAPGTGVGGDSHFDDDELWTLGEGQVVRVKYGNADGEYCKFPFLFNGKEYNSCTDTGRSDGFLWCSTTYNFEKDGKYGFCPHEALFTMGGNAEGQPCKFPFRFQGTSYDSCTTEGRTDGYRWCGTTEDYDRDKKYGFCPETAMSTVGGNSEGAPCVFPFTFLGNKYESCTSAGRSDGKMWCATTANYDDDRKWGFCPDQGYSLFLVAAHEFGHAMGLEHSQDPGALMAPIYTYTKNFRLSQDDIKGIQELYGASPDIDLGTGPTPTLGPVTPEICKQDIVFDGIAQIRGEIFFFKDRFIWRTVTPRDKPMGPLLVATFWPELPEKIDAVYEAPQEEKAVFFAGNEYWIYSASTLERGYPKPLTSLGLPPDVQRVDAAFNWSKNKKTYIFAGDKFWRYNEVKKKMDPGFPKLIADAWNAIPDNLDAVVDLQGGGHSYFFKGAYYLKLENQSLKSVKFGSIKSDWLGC
protocol-details: Inhibition of human MMP2 using Dnp-Pro-Cha-Gly-Cys(ME)-His-Ala-Lys(Nma)-NH2 as substrate preincubated for 0.5 hrs followed by substrate addition and measured after 6 hrs by fluorimeter analysis
readout-type: IC50 (nM)
Numbers only, in nM.

Input: Provide the documented IC50 with 72 kDa type IV collagenase (Homo sapiens, UniProt P08253) as the system for O=C(O)[C@H]1[C@H](CN2C(=O)c3ccccc3C2=O)CC[C@@H]1SCc1ccc(-c2ccc(Cl)cc2)cc1
Output: 73

----------
system: Collagenase 3 (Homo sapiens, UniProt P45452)
protocol-details: Inhibition of recombinant human MMP13 using […] as substrate incubated for 20 to 30 mins by fluorescence microplate reader analysis
readout-type: pIC50
Give bare numbers, as −log10 of the molar value.

Input: Which pIC50 is reported for this compound? COc1ccc(S(=O)(=O)N2CCN(c3cccnc3)CC2C(=O)NO)cc1 (stereo unspecified)
Output: 7.24

----------
system: 72 kDa type IV collagenase (Homo sapiens, UniProt P08253)
protocol-details: Inhibition of human MMP2 using Dnp-Pro-Cha-Gly-Cys(Me)-His-Ala-Lys(Nma)-NH2 substrate by fluorimetric analysis
readout-type: pIC50
Numbers only, as −log10 of the molar value.

Input: Return reported pIC50; argument: COc1ccc(S(=O)(=O)N2CC(C)(C)C(CCSCc3ccccc3)C2C(=O)NO)cc1 (stereo unspecified)
Output: 8.79

----------
system: Stromelysin-1 (Homo sapiens, UniProt P08254)
Sequence (P08254 whole entry): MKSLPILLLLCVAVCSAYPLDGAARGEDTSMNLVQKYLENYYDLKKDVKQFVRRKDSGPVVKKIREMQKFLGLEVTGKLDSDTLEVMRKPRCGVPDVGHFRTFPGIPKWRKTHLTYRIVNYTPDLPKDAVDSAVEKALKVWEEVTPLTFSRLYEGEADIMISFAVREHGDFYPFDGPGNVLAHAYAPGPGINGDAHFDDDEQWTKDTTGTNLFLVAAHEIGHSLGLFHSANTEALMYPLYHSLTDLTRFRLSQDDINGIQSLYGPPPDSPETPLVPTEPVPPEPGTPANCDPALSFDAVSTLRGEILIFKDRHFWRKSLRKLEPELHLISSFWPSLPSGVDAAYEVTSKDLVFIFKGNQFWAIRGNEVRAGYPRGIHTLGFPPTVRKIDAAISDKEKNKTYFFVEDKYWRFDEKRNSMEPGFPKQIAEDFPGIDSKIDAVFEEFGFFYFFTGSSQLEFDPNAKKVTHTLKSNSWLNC
protocol-details: Inhibition of human MMP3 using (7-methoxycoumarine-4-yl)-Arg-Pro-Lys-Pro-Tyr-Ala-Nva-Trp-Met-Lys(Dnp)-NH2 substrate by fluorimetric analysis
readout-type: pIC50
Answers are plain numbers, as −log10 of the molar value.

Input: Any idea what pIC50 was measured for COc1ccc(S(=O)(=O)N2CC(C)(C)C(CCSCc3ccccc3)C2C(=O)NO)cc1 (stereo unspecified) ?
Output: 8.17

----------
system: Interstitial collagenase (Homo sapiens)
Sequence (P03956 whole entry): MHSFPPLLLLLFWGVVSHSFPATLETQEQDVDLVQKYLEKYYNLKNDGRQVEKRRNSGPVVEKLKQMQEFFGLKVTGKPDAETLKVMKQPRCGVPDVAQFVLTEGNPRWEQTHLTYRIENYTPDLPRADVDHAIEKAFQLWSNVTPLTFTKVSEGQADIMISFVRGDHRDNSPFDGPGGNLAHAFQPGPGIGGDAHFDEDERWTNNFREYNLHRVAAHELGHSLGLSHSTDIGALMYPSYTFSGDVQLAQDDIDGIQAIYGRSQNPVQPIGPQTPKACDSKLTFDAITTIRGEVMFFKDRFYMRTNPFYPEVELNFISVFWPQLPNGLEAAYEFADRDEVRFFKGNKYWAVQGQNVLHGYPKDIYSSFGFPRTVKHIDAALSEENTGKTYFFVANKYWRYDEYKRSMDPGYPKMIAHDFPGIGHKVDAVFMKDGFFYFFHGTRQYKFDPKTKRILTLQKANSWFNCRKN
protocol-details: Inhibition of human MMP1 using Dnp-Pro-Cha-Gly-Cys(ME)-His-Ala-Lys(Nma)-NH2 as substrate preincubated for 0.5 hrs followed by substrate addition and measured after 6 hrs by fluorimeter analysis
readout-type: IC50 (µM)
Answers are plain numbers, in µM.

Input: Given the compound O=C(O)[C@H]1[C@H](CN2C(=O)c3ccccc3C2=O)CC[C@@H]1SCc1ccc(-c2ccc(Cl)cc2)cc1 , what is its reported IC50?
Output: 50

----------
system: 72 kDa type IV collagenase (Homo sapiens, UniProt P08253)
readout-type: pIC50
Give bare numbers, as −log10 of the molar value.

Input: Please give the measured pIC50 for this compound: CN(C)c1ccc(-c2cn(-c3ccc(S(=O)(=O)NC(Cc4ccccc4)C(=O)NO)cc3)nn2)cc1 (stereo unspecified)
Output: 9.49

----------
system: Matrix metalloproteinase-9 (Homo sapiens, UniProt P14780)
Sequence (P14780 whole entry): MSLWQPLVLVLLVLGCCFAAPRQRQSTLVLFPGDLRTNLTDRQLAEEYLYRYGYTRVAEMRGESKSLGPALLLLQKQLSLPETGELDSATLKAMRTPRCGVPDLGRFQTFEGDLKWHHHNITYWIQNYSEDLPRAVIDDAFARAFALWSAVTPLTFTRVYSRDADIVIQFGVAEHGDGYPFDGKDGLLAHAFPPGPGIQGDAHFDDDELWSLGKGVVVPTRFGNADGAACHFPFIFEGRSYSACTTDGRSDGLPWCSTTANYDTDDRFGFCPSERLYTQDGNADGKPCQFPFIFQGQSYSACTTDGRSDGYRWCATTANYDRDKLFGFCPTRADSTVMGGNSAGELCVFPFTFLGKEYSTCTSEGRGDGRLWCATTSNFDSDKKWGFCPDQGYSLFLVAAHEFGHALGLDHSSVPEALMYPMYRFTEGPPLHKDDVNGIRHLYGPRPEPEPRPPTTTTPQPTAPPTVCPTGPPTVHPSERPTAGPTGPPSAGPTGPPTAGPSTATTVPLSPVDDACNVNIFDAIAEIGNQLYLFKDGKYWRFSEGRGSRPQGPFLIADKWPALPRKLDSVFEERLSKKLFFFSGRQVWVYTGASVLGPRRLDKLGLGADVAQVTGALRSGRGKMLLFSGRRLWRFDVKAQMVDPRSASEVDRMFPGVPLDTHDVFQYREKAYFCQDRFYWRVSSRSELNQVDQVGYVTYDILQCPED
protocol-details: Inhibition of MMP-9 (unknown origin) using Ac-Pro-Leu-Gly-SCH(CH2 CH(CH3)2)CO-Leu-Gly-OCH2CH3 as substrate preincubated of 0.5 hrs followed by substrate addition and measured after 3 hrs by fluorescence analysis
readout-type: IC50 (nM)
Numbers only, in nM.

Input: Tell me reported IC50 for Cc1ccc(C#Cc2ccc(S(=O)(=O)N[C@H](C(=O)O)C(C)C)s2)cc1 , tested with Matrix metalloproteinase-9 (Homo sapiens, UniProt P14780).
Output: 14

----------
Collagenase 3 (Homo sapiens) IC50 data
Give bare numbers, in nM.

Study these solved cases before continuing.
INSERT INTO measurements (compound_structure, system, unit_of_measure, test_value) VALUES
  ('COc1ccc(S(=O)(=O)N(C)c2c(CN3CCOCC3)cc(C)cc2C(=O)NO)cc1', 'Collagenase 3 (Homo sapiens)', 'nM', 14),
  ('COc1ccc(S(=O)(=O)N(Cc2ccccc2)c2c(C(=O)NO)ccc3c(C(C)(C)C)cccc23)cc1', 'Collagenase 3 (Homo sapiens)', 'nM', 16),
  ('COc1ccc(S(=O)(=O)N(c2c(C)cc(-c3cccc(C(F)(F)F)c3)cc2C(=O)NO)N(C)C)cc1', 'Collagenase 3 (Homo sapiens)', 'nM', 39);

I would be grateful if you could provide IC50 for each of the following entries.
1. COc1ccc(S(=O)(=O)N(C)c2c(C)cc(Cc3ccc(CN(C)C)cc3)cc2C(=O)NO)cc1
2. COc1ccc(S(=O)(=O)N(Cc2ccccn2)c2c(C)cc(-c3cccc(C(F)(F)F)c3)cc2C(=O)NO)cc1
3. CCCCOc1ccc(S(=O)(=O)C2(C(=O)NO)CCN(Cc3ccccc3)CC2)cc1

Output:
1. 11
2. 2
3. 16

----------
system: UniProtKB P14780
protocol-details: Inhibition of recombinant human MMP9 using […] as substrate incubated for 20 to 30 mins by fluorescence microplate reader analysis
Assignment: determine reported IC50 for the given compounds.
Answers are plain numbers, in nM.

INSERT INTO assay_data (compound, readout_type, test_value) VALUES
  ('COc1ccc(S(=O)(=O)N2CCCC(C)(C)CC2C(=O)NO)cc1 (configuration not stated)', 'IC50', 0.5);

Now for another entry.
Input: Could you tell me which IC50 is on file for COc1ccc(S(=O)(=O)N2CCN(c3cccnc3)CC2C(=O)NO)cc1 (configuration not stated) ?
Output: 32

----------
Record form. Attribute: IC50. Fill in for each entry.
system: Matrix metalloproteinase-9 (Homo sapiens, UniProt P14780)
protocol-details: Inhibition of MMP-9 (unknown origin) by fluorimetric assay
Answers are plain numbers, in nM.

INSERT INTO results (molecule, test_value) VALUES
  ('CC1(C)NC(=O)N(C[C@H](CS(=O)(=O)c2ccc(-c3ccc(OC(F)(F)F)cc3)cc2)N(O)C=O)C1=O', 0.34);

Next item in the queue.
Input: Notebook entry, Matrix metalloproteinase-9 (Homo sapiens, UniProt P14780) assay: IC50 of O=CN(O)C(CS(=O)(=O)c1ccc(Oc2ccc(OC(F)(F)F)cc2)cc1)[C@@H](O)CO (some centres not stated) = ?
Output: 0.092

----------
system: Matrix metalloproteinase-9 (Homo sapiens, UniProt P14780)
protocol-details: Inhibition of human MMP-9
readout-type: pIC50
Give bare numbers, as −log10 of the molar value.

Input: Endpoint output: pIC50 of CCCN(C(CSC)C(=O)NO)S(=O)(=O)c1ccc(OC)cc1 (stereo unspecified) . Value?
Output: 9.70
